B1: Ribonuclease, P00648 (parent)
chain: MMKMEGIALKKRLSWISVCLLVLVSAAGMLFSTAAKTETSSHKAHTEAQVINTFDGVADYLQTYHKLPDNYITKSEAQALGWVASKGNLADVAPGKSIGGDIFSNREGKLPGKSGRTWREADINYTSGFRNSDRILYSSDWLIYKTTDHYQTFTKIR

variants of: B1; conditions: Bacillus amyloliquefaciens; pH 6.3; 25 °C; Urea; Fluorescence; MES-NaOH 450 mM; reversible: yes; structure 1BNI; whole UniProt chain shown
So I've got a bunch of variants here, and I need their unfolding free energy values.
Answers are plain numbers, in kcal/mol.

Here's what some known entries look like.
{"variant": "I156A", "unfolding free energy (kcal/mol)": 7.55}
{"variant": "N105A", "unfolding free energy (kcal/mol)": 6.82}
{"variant": "D55A D59A", "unfolding free energy (kcal/mol)": 7.41}
{"variant": "Y125F", "unfolding free energy (kcal/mol)": 7.68}
{"variant": "N52A", "unfolding free energy (kcal/mol)": 7.23}

Look up unfolding free energy for the entries below, preserving their order.
1. Y60A Y64A
2. I102T
3. T73G
4. D59A R157A
5. K109R
6. V57A
7. Y60A

[A]
[4.86, 7.58, 7.81, 9.21, 8.5, 5.35, 5.82]

Look up unfolding free energy for the entries below, preserving their order.
1. K74G
2. T152V
3. I143A
4. N105D

[A]
8.44
6.68
5.67
9.13
